- TESTED TARGET: EGFR(D770_N771insSVD) expressing Ba/F3 stable cell line (Homo sapiens, UniProt P00533, DUP768-770, cells depend on it)
- Sequence (P00533 with tags, fused parts or gaps DUP768-770): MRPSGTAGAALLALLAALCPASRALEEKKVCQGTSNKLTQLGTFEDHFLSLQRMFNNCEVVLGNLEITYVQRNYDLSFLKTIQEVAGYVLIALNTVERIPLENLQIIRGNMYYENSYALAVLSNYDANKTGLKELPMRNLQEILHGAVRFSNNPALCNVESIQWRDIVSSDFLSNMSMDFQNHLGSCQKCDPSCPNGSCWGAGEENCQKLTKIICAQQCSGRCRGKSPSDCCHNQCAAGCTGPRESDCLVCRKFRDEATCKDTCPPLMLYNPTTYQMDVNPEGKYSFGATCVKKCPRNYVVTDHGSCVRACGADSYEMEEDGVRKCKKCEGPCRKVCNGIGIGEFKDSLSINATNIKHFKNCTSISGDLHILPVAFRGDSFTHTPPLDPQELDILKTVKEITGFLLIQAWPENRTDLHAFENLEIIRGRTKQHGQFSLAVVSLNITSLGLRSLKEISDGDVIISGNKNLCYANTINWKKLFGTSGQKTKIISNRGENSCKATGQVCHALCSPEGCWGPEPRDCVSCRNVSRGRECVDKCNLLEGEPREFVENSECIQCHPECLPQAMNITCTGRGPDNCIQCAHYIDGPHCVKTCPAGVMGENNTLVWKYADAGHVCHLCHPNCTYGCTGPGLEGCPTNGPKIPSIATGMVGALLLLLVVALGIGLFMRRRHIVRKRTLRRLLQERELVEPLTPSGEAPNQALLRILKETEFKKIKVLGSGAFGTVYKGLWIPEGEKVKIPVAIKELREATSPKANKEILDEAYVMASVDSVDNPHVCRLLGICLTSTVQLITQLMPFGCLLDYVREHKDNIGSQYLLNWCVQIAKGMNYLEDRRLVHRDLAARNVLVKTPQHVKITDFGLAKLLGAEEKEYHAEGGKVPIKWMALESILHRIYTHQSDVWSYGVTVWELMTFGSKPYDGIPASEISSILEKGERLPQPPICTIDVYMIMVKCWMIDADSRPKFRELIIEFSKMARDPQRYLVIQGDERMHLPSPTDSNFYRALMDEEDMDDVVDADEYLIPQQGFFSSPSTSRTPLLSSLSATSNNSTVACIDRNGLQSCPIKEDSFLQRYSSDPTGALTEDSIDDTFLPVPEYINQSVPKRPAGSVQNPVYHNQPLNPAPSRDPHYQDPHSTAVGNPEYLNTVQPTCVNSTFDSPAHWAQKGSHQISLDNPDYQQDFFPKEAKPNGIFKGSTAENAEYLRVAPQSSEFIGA
- METHOD NOTES: Cellular proliferation (Alamar Blue) assay, EGFR D770_N771insSVD Ba/F3
- Type: cell-based
- STATED CONDITIONS: 72 hr, read-out: D770 IC50
PROPERTY MEASURED: GI50 (nM)

C=CC(=O)Nc1cccc(Oc2nc(Nc3cnn(C)c3)ncc2-c2cncc(C(F)(F)F)c2)c1 :: 107

A. C=CC(=O)Nc1cc(Br)cc(Nc2nc(Nc3cnn(C)c3)ncc2-c2ccc(CC(F)(F)F)cc2)c1
B. C=CC(=O)Nc1cccc(Oc2nc(Nc3cn(C)nc3Cl)ncc2-c2ccc(C(F)(F)F)cc2)c1
C. C=CC(=O)Nc1ccc(F)c(Nc2nc(Nc3cnn(C4COC4)c3)ncc2-c2ccc(Br)cc2)c1
D. C=CC(=O)Nc1ccc(F)c(Nc2nc(Nc3cnn(C)c3)ncc2-c2ccc(NC(C)=O)cc2)c1
Req: Your job: order these 4 records by GI50, ascending. Field: ranking. Enter the labels in the order requested.
Resp: C, A, B, D
(C: 39 nM, A: 99 nM, B: 187 nM, D: 2890 nM)
